protocol_text: Acid-catalyzed hydrolysis of enol ethers in THF/1 M HCl, percent remaining by GC-FID
Assay type: physicochemical
protocol_conditions: THF/1M HCl (80:20 v/v), room temperature, 24 h
measurement_label: percent remaining, 24 h (%)

molecule	endpoint_unit	percent remaining, 24 h
CC/C=C\CCOC(=O)C(C)OC=Cc1ccc(OC)cc1 (racemic)	%	95.1
CCCCCC(CC)OC=Cc1ccccc1 (stereo not drawn) [(2-(octan-3-yloxy)vinyl)benzene, reference compound]	%	84.9
CC/C=C\CCOC(=O)C(C)OC=C(C)c1ccc(OC)cc1 (racemic)	%	96.6
COC(=O)C(C)(C)OC=C(C)c1ccc(C)cc1	%	99.3
CCCCCC(CC)OC=C(C)c1ccccc1 (stereo not drawn) [(1-(octan-3-yloxy)prop-1-en-2-yl)benzene, reference compound]	%	96.2
CCCCCC(CC)OC(=O)C(C)OC=C(C)c1ccccc1 (racemic)	%	99.3
CC/C=C\CCOC=Cc1ccc(OC)cc1 [Compound 51, reference compound]	%	89.1
COC(=O)C(C)(C)OC=C(C)c1ccc(OC)cc1	%	102
CCCCCC(CC)OC(=O)C(C)OC=Cc1ccccc1 (racemic) [Compound 41, (±)-octan-3-yl 2-(styryloxy)propanoate]	%	99.7
CC(OC=Cc1ccccc1)C(=O)OCCc1ccccc1 (racemic) [Compound 40, (±)-phenethyl 2-(styryloxy)propanoate]	%	97.3
CC(=COCCc1ccccc1)c1ccc(C)cc1 [reference compound]	%	97.8
CC(=COC(C)(C)CCCC(C)C)c1ccccc1 [reference compound]	%	92.9
CC/C=C\CCOC(=O)C(C)OC=Cc1ccccc1 (racemic)	%	96.3
CC(=COCCc1ccccc1)c1ccccc1 [(1-phenethoxyprop-1-en-2-yl)benzene, reference compound]	%	98.4
CCC(C)OC(=O)C(C)OC=C(C)c1ccc(OC)cc1 (racemic)	%	96.8
COC(=O)C(C)(C)OC=Cc1ccccc1 [Compound 10, methyl 2-methyl-2-(styryloxy)propanoate]	%	97.2
C(=Cc1ccccc1)OCCc1ccccc1 [(2-phenethoxyvinyl)benzene, reference compound]	%	94.6
CCC(C)OC(=O)C(C)OC=C(C)c1ccc(C)cc1 (racemic)	%	98.0
